molecular target: High affinity nerve growth factor receptor (Homo sapiens); settings: at 1 µM;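 also: each value is the mean percent inhibition of TRKA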
Please respond with reported inhibition for every item in the list.
Answers are plain numbers, in %.

Please review the entries below; each comes with its answer.
[
  {
    "compound": "NC(=O)c1ccc(-c2nc(-c3ccccn3)c(-c3ccc4c(c3)OCO4)[nH]2)cc1",
    "inhibition [%]": 3.43
  },
  {
    "compound": "O=C(Nc1n[nH]c2nc(-c3ccco3)c(Br)cc12)C1CC1",
    "inhibition [%]": 3.72
  },
  {
    "compound": "COc1cc2ncn(-c3cc(O[C@@H](C)c4ccccc4Cl)c(C(N)=O)s3)c2cc1OC",
    "inhibition [%]": 6.09
  }
]

Each compound below has a recorded value; state its inhibition.
1. COc1ccccc1Nc1ncc(-c2ccccc2)o1
2. CN(C)c1cc2c(Nc3ccc4nc(Cc5ccccc5)[nH]c4c3)ncnc2cn1
3. Nc1ncnc2occ(-c3ccc(NC(=O)Nc4cc(C(F)(F)F)cc(C(F)(F)F)c4)cc3)c12
4. COc1cc2ncn(-c3cc(OCc4ccccc4Cl)c(C(N)=O)s3)c2cc1OC
5. Cc1ccc(NC(=O)c2ccnc(N3CCCC3)c2)cc1-c1ccc(C(=O)NCC2CC2)cc1

Response line:
[4.51, 3.31, 94.1, 2.92, 2.28]

Each compound below has a recorded value; state its inhibition.
1. COc1ccc2cc(-c3c(-c4ccncc4)nc(-c4ccc([S+](C)[O-])cc4)n3C)ccc2c1 (stereo unspecified)
2. COC(=O)Nc1nc2cc(Oc3ccc(NC(=O)Nc4cccc(C(=O)O)c4)cc3)ccc2[nH]1
3. O=C1NC(=O)C(N2CCc3ccccc32)=C1c1ccc(Cl)cc1

Response line:
[1.74, 3.47, 3.04]

Data credit: ChEMBL document CHEMBL1961873
